Assay: Solubility in water
Type: physicochemical
Details: Table 5; distilled water, 25° C., ultrasonication 30 minutes, visual examination; tested at 5, 1, 0.1, 0.01 mM; insoluble = not dissolved at 0.01 mM
attribute measured: Solubility in Water

[[record]]
molecule = "O=C1N[C@@H](Cc2ccc(O)cc2)C(=O)N[C@H]1Cc1ccccc1"
obs_value = "insoluble"

[[record]]
molecule = "CC(C)C1NC(=O)C(Cc2ccc(O)cc2)NC1=O (stereo not drawn)"
obs_value = "insoluble"

[[record]]
molecule = "O=C1N[C@@H](Cc2ccc(O)cc2)C(=O)N[C@H]1Cc1ccc(O)cc1"
obs_value = "insoluble"


* * *

Target: xanthine oxidase (XO)
Experiment: In vitro xanthine oxidase (XO) inhibiting action
Assay type: biochemical
Conditions: Table 3; PBS pH 7.5, xanthine substrate, absorbance at 295 nm after 30 minutes; mean±standard error; read-out: IC50 (Activity of Inhibiting XO of Phe-Containing Cyclic Dipeptides)
Reported IC50 values follow for various compounds

[[record]]
compound = "O=C(O)CCC1NC(=O)C(Cc2ccccc2)NC1=O (stereo not drawn) [Cyclo(Glu-Phe), reference compound]"
attribute_measured = "IC50"
obs_value = "> 100 µM"

[[record]]
compound = "NC(=O)CCC1NC(=O)C(Cc2ccccc2)NC1=O (stereo not drawn) [Cyclo(Gln-Phe), reference compound]"
attribute_measured = "IC50"
obs_value = "> 300 µM"


Now consider a different compound.
For the compound O=C1NC(Cc2ccccc2)C(=O)N2CCCC12 (stereo not drawn) [Cyclo(Pro-Phe), reference compound] , give its reported IC50.
> 100 µM
